Target: T1, Human BCMA (human, UniProt Q02223 1-54, limits assumed)
T1 construct: also called huBCMA; B-cell maturation antigen
T1 sequence (looked up): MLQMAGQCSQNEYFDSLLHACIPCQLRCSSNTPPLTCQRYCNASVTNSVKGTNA
Assay: SPR, IgG immobilised, human BCMA analyte
Catalogue of binders with associated koff
Give the quantity in s⁻¹, number only.

// solved cases for koff follow
| binder | experimental.value |
| --- | --- |
| A02_Rd4_6nM_C22 (antibody, V domains shown, IgG) VH: EVQLLESGGGLVQPGGSLRLSCAASGFTFSSYAMNWVRQAPGKGLEWVSAVLDSGGSTYYADSVKGRFTISRDNSKNTLYLQMNSLRAEDTAVYYCARYWPMTPWGQGTLVTVSS VL: EIVLTQSPGTLSLSPGERATLSCRASQSVSSSYLAWYQQKPGQAPRLLMYDASIRATGIPDRFSGSGSGTDFTLTISRLEPEDFAVYYCQQYQVWPLTFGQGTKVEIK | 0.000182 |
| C01_Rd4_6nM_C26 (antibody, V domains shown, IgG) VH: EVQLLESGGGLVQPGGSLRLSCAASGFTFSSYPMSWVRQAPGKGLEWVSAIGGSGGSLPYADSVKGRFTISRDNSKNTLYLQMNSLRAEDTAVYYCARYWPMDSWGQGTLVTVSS VL: EIVLTQSPGTLSLSPGERATLSCRASQSVSALYLAWYQQKPGQAPRLLIYDASSRAPGIPDRFSGSGSGTDFTLTISRLEPEDFAVYYCQQYSAWPLTFGQGTKVEIK | 0.00136 |

Lab note: COMBO_Rd4_6nM_C21 (antibody, V domains shown, IgG) VH: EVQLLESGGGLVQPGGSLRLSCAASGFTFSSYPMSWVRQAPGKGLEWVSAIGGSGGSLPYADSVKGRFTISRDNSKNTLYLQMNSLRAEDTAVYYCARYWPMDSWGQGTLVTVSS VL: EIVLTQSPGTLSLSPGERATLSCRASQSVSAAYLAWYQQKPGQAPRLLMYDASIRATGIPDRFSGSGSGTDFTLTISRLEPEDFAVYYCQQYMCWPLTFGQGTKVEIK gave koff of 7.34e-05
